Provenance of the data: patent US5236927A

# procedure text: Comparative pharmacokinetics in the mouse (plasma, liver, kidney levels)
# Format: in vivo
# test settings: mouse, plasma, ip; 500 mg/kg i.p., 3 h post-treatment; read-out: Plasma quinazoline conc.
attribute measured: concentration at 3 h (µM)

                                   compound    attribute_measured  unit_abbrev  number
0  C#CCN(Cc1ccc2nc[nH]c(=O)c2c1)c1ccc(C(=O)N[C@@H](CCC(=O)O)C(=O)O)cc1 [CB3804]  concentration at 3 h           µM       5

----------
# procedure text: Pharmacokinetics in rats
# test settings: read-out: Plasma levels; 100 mg/kg 1 h i.v. infusion; end inf; individual rats; 100 mg/kg, 60 min
attribute measured: concentration (µM)

>>> print(df.to_string())
                         structure_notation  attribute_measured  number
0  C#CCN(Cc1ccc2nc[nH]c(=O)c2c1)c1ccc(C(=O)N[C@@H](CCC(=O)O)C(=O)O)cc1       concentration     256

----------
# test settings: rat, in vivo, iv, 100 mg/kg, 1 h
attribute measured: concentration

>>> print(df.to_string())
                                   compound  attribute_measured  result
0  C#CCN(Cc1ccc2nc(N)nc(O)c2c1)c1ccc(C(=O)N[C@@H](CCC(=O)O)C(=O)O)cc1 [CB3717, reference compound]       concentration  878 µM

----------
# procedure text: Comparative pharmacokinetics in the mouse (plasma, liver, kidney levels)
# Format: in vivo
# test settings: mouse, plasma, ip; 100 mg/kg i.p., 3 h post-treatment; read-out: Plasma quinazoline conc.
attribute measured: concentration at 3 h (µM)

In [3]: df
Out[3]:
                                   molecule  readout_relation  number
0  C#CCN(Cc1ccc2nc[nH]c(=O)c2c1)c1ccc(C(=O)N[C@@H](CCC(=O)O)C(=O)O)cc1                 <       5
1  C#CCN(Cc1ccc2nc(N)nc(O)c2c1)c1ccc(C(=O)N[C@@H](CCC(=O)O)C(=O)O)cc1 [CB3717, reference compound]                 =     134
